# system_under_test: CckA_CA (Caulobacter vibrioides, UniProt Q9X688)
# Sequence (Q9X688 379-545): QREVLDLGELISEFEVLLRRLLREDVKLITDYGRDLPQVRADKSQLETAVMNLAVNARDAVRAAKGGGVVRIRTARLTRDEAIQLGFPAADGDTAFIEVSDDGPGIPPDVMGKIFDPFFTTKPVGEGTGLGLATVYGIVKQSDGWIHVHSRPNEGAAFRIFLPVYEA
# protocol_summary: ITC ligand binding to CckA_CA
# Design: species or system Caulobacter crescentus
# protocol_conditions: read-out: Kd, AMPPNP binding; - c-di-GMP; 12°C
pKd: −log10 of the molar value.
test_readout: pKd

Reported pKd for Nc1ncnc2c1ncn2[C@@H]1O[C@H](COP(=O)(O)OP(=O)(O)NP(=O)(O)O)[C@@H](O)[C@H]1O [AMPPNP] was ~5.00
